Molecular target: EP300 (Homo sapiens, UniProt Q09472)
Construct: T7 phage strains displaying bromodomains were grown
Sequence (Q09472 1049-1156 limits assumed): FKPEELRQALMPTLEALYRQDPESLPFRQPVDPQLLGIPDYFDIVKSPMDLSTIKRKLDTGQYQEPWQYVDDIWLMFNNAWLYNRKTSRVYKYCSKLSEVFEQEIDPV
Experiment: BROMOscan Kd determination EP300
Experimental: Bromodomain profiling was carried out on the basis of BROMOscan™. […] Kds were determined using an 11-point 3-fold compound dilution series with one DMSO control point. […] The bromodomain concentration in the eluates was measured by qPCR. […] Most Kds were determined using a compound top concentration=10,000 nM. […] Binding Constants (Kds): Binding constants (Kds) were calculated with a standard dose-response curve using the Hill equation: The Hill Slope was set to −1. […]
measured-quantity: Kd (nM)

Worked examples follow.
smiles-code: COc1ccc(S(=O)(=O)N2CCN(C)CC2)cc1NC(=O)c1[nH]c(C)c2c1CCCCC2=O
experimental-system: EP300 (Homo sapiens, UniProt Q09472)
Kd, nM: 1800

smiles-code: COc1ccc(S(=O)(=O)N2CC3(COC3)C2)cc1NC(=O)c1[nH]c(C)c2c1CCCCC2=O
experimental-system: EP300 (Homo sapiens, UniProt Q09472)
Kd, nM: 990

1 = COc1ccc(S(=O)(=O)N2CCCCC2)cc1NC(=O)c1[nH]c(C)c2c1CCCCC2=O
2 = COc1ccc(S(=O)(=O)N2CCCCCC2)cc1NC(=O)c1[nH]c(C)c2c1CCCCC2=O
3 = Cc1[nH]c(-c2cc(N)ccc2Cl)c2c1C(=O)CCCC2
4 = CCN(CC)S(=O)(=O)c1ccc(OC)c(NC(=O)c2[nH]c(C)c3c2CCCCC3=O)c1
Q: Thanks in advance: please rank these 4 entries by Kd, highest to lowest. Lab note: final answer is the ordered label list.
A: 2, 1, 4, 3
